- Test system: Alternaria solani conidia
- PROTOCOL_SUMMARY: Tomato Early Blight (tomato seedlings)
- Type: in vivo
- ASSAY_SETUP: 250 ppm spray, inoculated 1 day later, relative to untreated check
- Description: Compounds of the invention were tested for the control of the Tomato Early Blight organism, Alternaria solani conidia. Tomato (variety Bonny Best) seedlings of 6 to 7 weeks old were used. The tomato plants were sprayed with a 250 ppm solution of the test compound in an acetone-and-water solution containing a small amount of a nonionic emulsifier. […]

CHEMICAL_STRING: Cc1cc(=O)on1C(=O)c1ccc(Cl)cc1Cl
% Control TEB (Tomato Early Blight) [%]: 92
--
CHEMICAL_STRING: Cc1cc(=O)on1C(=O)c1ccc([N+](=O)[O-])cc1Cl
% Control TEB (Tomato Early Blight) [%]: 0
--
CHEMICAL_STRING: Cc1cc(=O)on1C(=O)c1ccc([N+](=O)[O-])cc1
% Control TEB (Tomato Early Blight) [%]: 0
--
CHEMICAL_STRING: Cc1cc(=O)on1C(=O)c1ccc(Cl)cc1[N+](=O)[O-]
% Control TEB (Tomato Early Blight) [%]: 56
--
CHEMICAL_STRING: Cc1cc(=O)on1C(=O)c1ccc(Cl)cc1
% Control TEB (Tomato Early Blight) [%]: 0

Cited source for all entries: patent US4504486A
